Molecular target: Xanthine oxidase (from bovine milk, Sigma) (Bos taurus (Bovine))
Sequence (P80457 whole entry): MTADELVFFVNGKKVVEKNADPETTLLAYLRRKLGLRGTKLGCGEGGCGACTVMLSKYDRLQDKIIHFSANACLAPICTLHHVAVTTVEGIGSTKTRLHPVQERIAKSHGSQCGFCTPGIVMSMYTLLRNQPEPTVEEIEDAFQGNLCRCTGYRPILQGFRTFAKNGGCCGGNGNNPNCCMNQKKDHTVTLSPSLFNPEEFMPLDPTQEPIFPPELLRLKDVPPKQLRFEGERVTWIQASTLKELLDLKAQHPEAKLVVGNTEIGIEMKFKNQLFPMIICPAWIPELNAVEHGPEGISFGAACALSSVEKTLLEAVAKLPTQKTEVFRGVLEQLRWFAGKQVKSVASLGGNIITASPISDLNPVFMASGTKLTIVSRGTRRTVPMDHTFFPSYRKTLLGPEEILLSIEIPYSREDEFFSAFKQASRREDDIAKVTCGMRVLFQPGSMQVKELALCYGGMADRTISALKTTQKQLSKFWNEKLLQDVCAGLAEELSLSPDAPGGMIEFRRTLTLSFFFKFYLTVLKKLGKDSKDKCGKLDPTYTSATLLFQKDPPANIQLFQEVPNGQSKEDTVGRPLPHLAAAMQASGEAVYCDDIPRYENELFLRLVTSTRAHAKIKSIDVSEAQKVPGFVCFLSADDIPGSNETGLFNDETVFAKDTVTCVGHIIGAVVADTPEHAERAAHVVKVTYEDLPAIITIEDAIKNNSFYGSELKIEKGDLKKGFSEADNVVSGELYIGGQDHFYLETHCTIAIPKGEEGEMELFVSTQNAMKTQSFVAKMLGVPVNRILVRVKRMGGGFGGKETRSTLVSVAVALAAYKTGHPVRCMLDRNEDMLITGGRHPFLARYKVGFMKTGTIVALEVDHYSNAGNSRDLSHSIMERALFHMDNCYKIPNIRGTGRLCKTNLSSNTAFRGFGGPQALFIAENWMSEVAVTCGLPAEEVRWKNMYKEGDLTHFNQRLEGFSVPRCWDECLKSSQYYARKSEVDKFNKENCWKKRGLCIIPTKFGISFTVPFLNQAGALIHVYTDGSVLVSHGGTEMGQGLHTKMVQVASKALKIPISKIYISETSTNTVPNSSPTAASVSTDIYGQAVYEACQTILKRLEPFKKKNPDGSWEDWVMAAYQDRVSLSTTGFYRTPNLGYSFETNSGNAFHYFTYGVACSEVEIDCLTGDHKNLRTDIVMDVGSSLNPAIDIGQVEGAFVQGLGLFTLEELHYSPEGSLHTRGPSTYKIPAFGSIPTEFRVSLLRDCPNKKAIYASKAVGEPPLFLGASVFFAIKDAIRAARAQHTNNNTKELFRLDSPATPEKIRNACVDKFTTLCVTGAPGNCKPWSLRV
Experiment: Xanthine oxidase inhibitory activity
Type: biochemical
Details: 100 μM xanthine final, absorbance at 290 nm
pIC50: −log10 of the molar value.
# reported pIC50; entries follow

Compound: COc1ccccc1CCc1cn(-c2ccc(C(=O)O)c(O)c2)cc1C#N [Example 294]
Experimental target: Xanthine oxidase (from bovine milk, Sigma) (Bos taurus (Bovine))
pIC50: 7.95
//
Compound: N#Cc1cn(-c2ccc(C(=O)O)c(O)c2)cc1CCc1ccccc1 [Example 287]
Experimental target: Xanthine oxidase (from bovine milk, Sigma) (Bos taurus (Bovine))
pIC50: 8.24
//
Compound: N#Cc1cn(-c2ccc(C(=O)O)c(O)c2)cc1-c1ccc(O)cc1 [Example 339]
Experimental target: Xanthine oxidase (from bovine milk, Sigma) (Bos taurus (Bovine))
pIC50: 8.36
//
Compound: COc1ccc(-c2cn(-c3ccc(C(=O)O)c(O)c3)cc2C#N)c(C)c1 [Example 276]
Experimental target: Xanthine oxidase (from bovine milk, Sigma) (Bos taurus (Bovine))
pIC50: 8.11
//
Compound: N#Cc1cn(-c2ccc(C(=O)O)c(O)c2)cc1-c1ccccc1Oc1ccccc1 [Example 303]
Experimental target: Xanthine oxidase (from bovine milk, Sigma) (Bos taurus (Bovine))
pIC50: 7.31
